biological target: T1, human TIM3, full length, on cells (human, UniProt Q8TDQ0 22-301); test: cell ELISA, CHO-K1 with full-length human Tim3
T1 construct: CHO-K1 cells were transfected with a plasmid for full-length human Tim3; other cells carry endogenous TIM3; also called huTIM-3; CHO-Tim3
Response field label: string, one of Y (EC50 strictly below 0.01 µg/mL) or N.

[[record]]
binder = "anti-TIM3 antibody Tim3_0016 variant (Tim3_0018) (antibody, V domains shown, Mouse monoclonal from hybridoma; also called TIM3-0016 variant (0018); Tim3_0016 variant 0018-A488) VH: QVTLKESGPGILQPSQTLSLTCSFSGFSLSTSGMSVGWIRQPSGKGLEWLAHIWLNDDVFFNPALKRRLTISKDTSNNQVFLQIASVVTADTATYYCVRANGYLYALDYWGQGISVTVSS VL: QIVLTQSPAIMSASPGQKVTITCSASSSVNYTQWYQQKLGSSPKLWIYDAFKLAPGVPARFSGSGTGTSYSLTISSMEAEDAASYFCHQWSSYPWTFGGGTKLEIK"
assigned_class = "N"

[[record]]
binder = "Tim3_0016MutNS (antibody, V domains shown, also called Tim3_0016 with HVR-L1 variant 2_NS) VH: QVTLKESGPGILQPSQTLRLTCSFSGFSLSTSGMSVGWIRQPSGKGLEWLAHIWLNDDVFFNPALKSRLTISKDTSNNQVFLQIASVVTADTATYYCVRANGYLYALDYWGQGTSVTVSS VL: QIVLTQSPAIMSASPGQKVTITCSASSSVSYTQWYQQKLGSSPKLWIYDAFKLAPGVPARFSGSGTGTSYSLTISSMEAEDAASYFCHQWSSYPWTFGGGTKLEIK"
assigned_class = "Y"

[[record]]
binder = "Tim3_0018MutNS (antibody, V domains shown, also called Tim3_0016 variant (0018) with HVR-L1 variant 2_NS) VH: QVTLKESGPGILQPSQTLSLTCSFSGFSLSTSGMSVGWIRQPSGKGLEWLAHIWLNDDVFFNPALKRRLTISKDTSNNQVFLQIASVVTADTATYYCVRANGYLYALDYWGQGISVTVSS VL: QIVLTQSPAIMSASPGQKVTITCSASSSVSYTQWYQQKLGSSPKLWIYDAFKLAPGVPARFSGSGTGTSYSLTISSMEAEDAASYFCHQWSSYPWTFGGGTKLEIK"
assigned_class = "N"

[[record]]
binder = "Tim3_0018MutNQ (antibody, V domains shown, made in HEK293; also called Tim3_0016 variant (0018) with HVR-L1 variant 1_NQ) VH: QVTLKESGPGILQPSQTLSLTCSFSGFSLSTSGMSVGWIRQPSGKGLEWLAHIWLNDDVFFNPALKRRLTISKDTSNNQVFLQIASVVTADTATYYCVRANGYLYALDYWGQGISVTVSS VL: QIVLTQSPAIMSASPGQKVTITCSASSSVQYTQWYQQKLGSSPKLWIYDAFKLAPGVPARFSGSGTGTSYSLTISSMEAEDAASYFCHQWSSYPWTFGGGTKLEIK"
assigned_class = "N"

[[record]]
binder = "Tim3_0016MutNQ (antibody, V domains shown, also called Tim3_0016 with HVR-L1 variant 1_NQ) VH: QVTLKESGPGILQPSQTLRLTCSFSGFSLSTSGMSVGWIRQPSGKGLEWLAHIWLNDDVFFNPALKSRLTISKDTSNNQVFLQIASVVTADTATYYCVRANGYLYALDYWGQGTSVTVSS VL: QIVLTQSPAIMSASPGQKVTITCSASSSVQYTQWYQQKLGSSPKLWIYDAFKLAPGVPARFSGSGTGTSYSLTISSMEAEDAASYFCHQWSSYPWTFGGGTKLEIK"
assigned_class = "Y"

